Reference source for all entries: patent US8629275B2

Biological target: recombinant expressed human or mouse AHCY enzyme (UniProt P23526)
Test: In vitro AHCY activity assay (ThioGlo1 fluorescence, hydrolysis of SAH)
Details: Example 1 average of n=3, Example 2 n=1
PARAMETER_MEASURED: IC50 (µM)
The reply should contain only the number, in µM.

{"SMILES_STR": "Nc1ncc(F)c2c1ncn2[C@@H]1C=C[C@@H](O)[C@H]1O", "MEASURE_UNIT": "µM", "IC50": 17.9}

For the next question, use this compound.
*Q* Look up IC50 for this compound: Nc1ncc(F)c2c1ncn2[C@@H]1CC[C@@H](O)[C@H]1O
*A* 0.042
